SYSTEM: T1, P-selectin (PS-Rg) (Homo sapiens, UniProt P16109 P16109:42-321)
T1 chain: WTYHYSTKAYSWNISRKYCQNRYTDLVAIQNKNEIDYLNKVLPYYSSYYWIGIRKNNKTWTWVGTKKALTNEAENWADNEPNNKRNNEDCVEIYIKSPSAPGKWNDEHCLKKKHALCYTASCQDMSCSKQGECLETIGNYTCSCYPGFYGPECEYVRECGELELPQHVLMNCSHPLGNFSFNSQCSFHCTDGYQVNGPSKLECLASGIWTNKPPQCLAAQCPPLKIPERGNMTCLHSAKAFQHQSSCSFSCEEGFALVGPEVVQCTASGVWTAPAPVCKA
MEASUREMENT_DESCRIPTION: filter; room temp, Ca/Mg buffer
CONDITIONS_USED: tags: lectin, EGF and first two CRD domains fused to human IgG1 Fc (provided by A. Varki); chain copies: 2 (dimeric Fc chimera, inferred)
Assign labels as follows, please: T for Kd below 2 µM; F for Kd equal to or exceeding 2 µM.

Check out these entries, answers already filled in.
binder="196 (ssDNA) DNA: CTACCTACGATCTGACTAGCTGGCGGTACGGGCCGTGCACCCACTTACCTGGGAAGTGAGCTTACTCTCATGTAGTTCC" class_name=F
binder="122 (ssDNA) DNA: CTACCTACGATCTGACTAGCGCAACGTGGCCCCGTTTAGCTCATTTGACCGTTCCATCCGGCTTACTCTCATGTAGTTCC" class_name=T
binder="174 (ssDNA) DNA: CTACCTACGATCTGACTAGCCATTCACCATGGCCCCTTCCTACGTATGTTCTGCGGGTGGCTTACTCTCATGTAGTTCC" class_name=T
binder="204 (ssDNA) DNA: CTACCTACGATCTGACTAGCGGAACACGTGAGGTTTACAAGGCACTCGACGTAAACACTTGCTTACTCTCATGTAGTTCC" class_name=F
binder="233 (ssDNA) DNA: CTACCTACGATCTGACTAGCCACGACAGAGAACAAGGCGTTAGACGTTATCCGACCACGGCTTACTCTCATGTAGTTCC" class_name=T

[Q] Would you kindly verify if Kd of 201 (ssDNA) DNA: CTACCTACGATCTGACTAGCCAAGGTAACCAGTACAAGGTGCTAAACGTAATGGCTTCGGCTTACTCTCATGTAGTTCC is strictly less than 2 µM?
[A] T

[Q] Would you kindly verify if Kd of 181 (ssDNA) DNA: CTACCTACGATCTGACTAGCCATCAAGGACTTTGCCCGAAACCCTAGGTTCACGTGTGGGGCTTACTCTCATGTAGTTCC is strictly less than 2 µM?
[A] T

Cited source for all entries: patent US6001988
